Reported AC10 is given for each of the following compounds.
Test system: MEF A1-2A-tBid cells, caspase-3/7 luminescence, 3 h
Assay: apoptosis induction in tBid-primed mouse fibroblasts – cell-based, MEF A1-2A-tBid, luminescence, dry powder, set 3, orthogonal assay for A1 inhibitor project, dose response (AID 504360)

These solved cases illustrate the format of a correct answer.
Task: Give the measured AC10 for `CCn1c(=O)c([N+](=O)[O-])c(Cl)c2ccccc21`
Output: 1950 nM

Task: Give the measured AC10 for `COCCn1c(=O)c([N+](=O)[O-])c(Sc2ccc(C)cc2)c2ccccc21`
Output: 16700 nM

Task: Give the measured AC10 for `COCCn1c(=O)c([N+](=O)[O-])c(Cl)c2ccccc21`
Output: 1470 nM

Task: Give the measured AC10 for `Cc1ccc(S(=O)(=O)c2c([N+](=O)[O-])c(=O)n(C)c3ccccc23)cc1`
Output: 3190 nM

Task: Give the measured AC10 for `CC1(C)CCC(c2ccc(Cl)cc2)=C(CN2CCN(c3ccc(C(=O)NS(=O)(=O)c4ccc(N[C@H](CCN5CCOCC5)CSc5ccccc5)c(S(=O)(=O)C(F)(F)F)c4)cc3)CC2)C1`
Output: 579 nM

Could you now consider this next compound?
Task: Give the measured AC10 for `Cn1c(=O)c([N+](=O)[O-])c(S(C)(=O)=O)c2ccccc21`
Output: 3280 nM

----------
Test system: MEF A1-2A-tBid cells, caspase-3/7 luminescence, 3 h
Assay: apoptosis induction in tBid-primed mouse fibroblasts – cell-based, MEF A1-2A-tBid, luminescence, dry powder, set 3, orthogonal assay for A1 inhibitor project, dose response (AID 504360)
Reported AC10 is given for each of the following compounds.

These solved cases illustrate the format of a correct answer.
Task: Tell me AC10 of `O=c1c([N+](=O)[O-])c(Cl)c2ccccc2n1Cc1ccccc1` when tested on MEF A1-2A-tBid cells, caspase-3/7 luminescence, 3 h.
Output: 12400 nM

Task: Tell me AC10 of `Cn1c(=O)c([N+](=O)[O-])c(Sc2ccccn2)c2ccccc21` when tested on MEF A1-2A-tBid cells, caspase-3/7 luminescence, 3 h.
Output: 2950 nM

Task: Tell me AC10 of `Cn1c(=O)c([N+](=O)[O-])c(Cl)c2ccccc21` when tested on MEF A1-2A-tBid cells, caspase-3/7 luminescence, 3 h.
Output: 1880 nM

Continuing:
Task: Tell me AC10 of `O=c1[nH]c2ccccc2c(Cl)c1[N+](=O)[O-]` when tested on MEF A1-2A-tBid cells, caspase-3/7 luminescence, 3 h.
Output: 2540 nM
